- Study Target: cluster 2b type streptokinase (Streptococcus pyogenes)
- Measurement Conditions: cell-based, cluster 2b
Quantity: IC50 (mM)

NCCCCCC(=O)O [EACA, ε-amino caproic acid, reference compound] :: 100

###

- Study Target: cluster 2a type streptokinase (Streptococcus pyogenes, UniProt A0A288R465)
- Parameters: species or system group A streptococcal strain A614
- Measurement Conditions: cell-based, cluster 2a
Quantity: IC50 (mM)

NC[C@H]1CC[C@H](C(=O)O)CC1 [TXA, tranexamic acid, reference compound] :: 100

###

- Study Target: cluster 1 type streptokinase (Streptococcus pyogenes)
- Sequence (P00747 20-810): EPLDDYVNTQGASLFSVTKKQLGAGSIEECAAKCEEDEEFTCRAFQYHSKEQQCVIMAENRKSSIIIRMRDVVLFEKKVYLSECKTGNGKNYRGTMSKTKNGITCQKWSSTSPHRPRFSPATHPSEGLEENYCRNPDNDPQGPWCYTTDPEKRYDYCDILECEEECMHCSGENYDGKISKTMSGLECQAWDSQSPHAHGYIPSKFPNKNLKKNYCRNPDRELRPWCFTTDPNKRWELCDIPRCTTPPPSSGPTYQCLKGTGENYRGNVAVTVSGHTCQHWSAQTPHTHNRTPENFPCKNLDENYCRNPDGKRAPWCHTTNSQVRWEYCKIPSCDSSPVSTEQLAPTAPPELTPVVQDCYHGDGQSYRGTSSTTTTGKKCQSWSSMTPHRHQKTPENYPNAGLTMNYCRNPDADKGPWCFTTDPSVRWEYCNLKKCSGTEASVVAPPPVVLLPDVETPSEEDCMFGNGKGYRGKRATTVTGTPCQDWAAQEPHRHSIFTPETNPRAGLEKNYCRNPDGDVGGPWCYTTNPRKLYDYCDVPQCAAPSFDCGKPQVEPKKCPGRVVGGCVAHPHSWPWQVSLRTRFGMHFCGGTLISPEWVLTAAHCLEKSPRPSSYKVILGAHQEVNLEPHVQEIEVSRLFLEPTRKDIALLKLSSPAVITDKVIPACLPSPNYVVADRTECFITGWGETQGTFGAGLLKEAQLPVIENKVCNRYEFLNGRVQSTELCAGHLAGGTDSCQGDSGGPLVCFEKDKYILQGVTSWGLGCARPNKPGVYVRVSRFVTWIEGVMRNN
- Sequence (P10520 27-440): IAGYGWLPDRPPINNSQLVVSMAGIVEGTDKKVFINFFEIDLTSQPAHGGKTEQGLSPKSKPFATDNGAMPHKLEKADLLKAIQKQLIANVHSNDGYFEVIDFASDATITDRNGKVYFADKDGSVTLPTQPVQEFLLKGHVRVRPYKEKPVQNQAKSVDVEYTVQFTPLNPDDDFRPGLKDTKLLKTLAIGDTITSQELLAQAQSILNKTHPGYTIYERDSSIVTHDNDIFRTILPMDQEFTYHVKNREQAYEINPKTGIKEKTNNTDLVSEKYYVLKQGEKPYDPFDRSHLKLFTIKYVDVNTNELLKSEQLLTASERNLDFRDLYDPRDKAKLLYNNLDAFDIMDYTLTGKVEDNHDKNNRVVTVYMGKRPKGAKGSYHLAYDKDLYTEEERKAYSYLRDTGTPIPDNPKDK
- Measurement Conditions: supernatant-based, cluster 1
pIC50: −log10 of the molar value.
Quantity: pIC50

CCCCCC/C=C\CCCCCCCC(=O)O :: 4.39
NC[C@H]1CC[C@H](C(=O)O)CC1 [TXA, tranexamic acid, reference compound] :: < 1.00
NCCCCCC(=O)O [EACA, ε-amino caproic acid, reference compound] :: < 1.00

###

- Study Target: UniProt:P10520
- Set-up: species or system group A streptococcal strain A314
- Measurement Conditions: cell-based, cluster 2b; concentrations up to 100 µg/ml (around 320–437 µM)
Quantity: effect on plasminogen activation

CCCCCCCC/C=C\CCCCCCCC(=O)O [oleic acid] :: no effect
CC/C=C\C/C=C\C/C=C\CCCCCCCC(=O)O [linolenic acid, reference compound] :: no effect
CCCCC/C=C\C/C=C\C/C=C\C/C=C\CCCC(=O)O [arachidonic acid, reference compound] :: no effect
CCCCCCCCCCCCCC(=O)O [myristic acid, reference compound] :: no effect

###

pIC50 listing for selected molecules.
- Study Target: cluster 2a type streptokinase (Streptococcus pyogenes)
- Test: biochemical
- Assay type: biochemical, group A streptococcal strain A614
- Measurement Conditions: supernatant-based, cluster 2a
pIC50: −log10 of the molar value.
Quantity: pIC50

NC[C@H]1CC[C@H](C(=O)O)CC1 [TXA, tranexamic acid, reference compound] :: < 1.00
NCCCCCC(=O)O [EACA, ε-amino caproic acid, reference compound] :: < 1.00

FYI, the data here is from paper PMC5603603.
